# measuredTarget: calcium channels (Oryctolagus cuniculus, UniProt P15381)
# Construct: from tissue; host or cells: heart of female New Zealand white rabbits, membrane fraction (42,000×g pellet)
# Sequence (P15381 whole entry, other chains not shown): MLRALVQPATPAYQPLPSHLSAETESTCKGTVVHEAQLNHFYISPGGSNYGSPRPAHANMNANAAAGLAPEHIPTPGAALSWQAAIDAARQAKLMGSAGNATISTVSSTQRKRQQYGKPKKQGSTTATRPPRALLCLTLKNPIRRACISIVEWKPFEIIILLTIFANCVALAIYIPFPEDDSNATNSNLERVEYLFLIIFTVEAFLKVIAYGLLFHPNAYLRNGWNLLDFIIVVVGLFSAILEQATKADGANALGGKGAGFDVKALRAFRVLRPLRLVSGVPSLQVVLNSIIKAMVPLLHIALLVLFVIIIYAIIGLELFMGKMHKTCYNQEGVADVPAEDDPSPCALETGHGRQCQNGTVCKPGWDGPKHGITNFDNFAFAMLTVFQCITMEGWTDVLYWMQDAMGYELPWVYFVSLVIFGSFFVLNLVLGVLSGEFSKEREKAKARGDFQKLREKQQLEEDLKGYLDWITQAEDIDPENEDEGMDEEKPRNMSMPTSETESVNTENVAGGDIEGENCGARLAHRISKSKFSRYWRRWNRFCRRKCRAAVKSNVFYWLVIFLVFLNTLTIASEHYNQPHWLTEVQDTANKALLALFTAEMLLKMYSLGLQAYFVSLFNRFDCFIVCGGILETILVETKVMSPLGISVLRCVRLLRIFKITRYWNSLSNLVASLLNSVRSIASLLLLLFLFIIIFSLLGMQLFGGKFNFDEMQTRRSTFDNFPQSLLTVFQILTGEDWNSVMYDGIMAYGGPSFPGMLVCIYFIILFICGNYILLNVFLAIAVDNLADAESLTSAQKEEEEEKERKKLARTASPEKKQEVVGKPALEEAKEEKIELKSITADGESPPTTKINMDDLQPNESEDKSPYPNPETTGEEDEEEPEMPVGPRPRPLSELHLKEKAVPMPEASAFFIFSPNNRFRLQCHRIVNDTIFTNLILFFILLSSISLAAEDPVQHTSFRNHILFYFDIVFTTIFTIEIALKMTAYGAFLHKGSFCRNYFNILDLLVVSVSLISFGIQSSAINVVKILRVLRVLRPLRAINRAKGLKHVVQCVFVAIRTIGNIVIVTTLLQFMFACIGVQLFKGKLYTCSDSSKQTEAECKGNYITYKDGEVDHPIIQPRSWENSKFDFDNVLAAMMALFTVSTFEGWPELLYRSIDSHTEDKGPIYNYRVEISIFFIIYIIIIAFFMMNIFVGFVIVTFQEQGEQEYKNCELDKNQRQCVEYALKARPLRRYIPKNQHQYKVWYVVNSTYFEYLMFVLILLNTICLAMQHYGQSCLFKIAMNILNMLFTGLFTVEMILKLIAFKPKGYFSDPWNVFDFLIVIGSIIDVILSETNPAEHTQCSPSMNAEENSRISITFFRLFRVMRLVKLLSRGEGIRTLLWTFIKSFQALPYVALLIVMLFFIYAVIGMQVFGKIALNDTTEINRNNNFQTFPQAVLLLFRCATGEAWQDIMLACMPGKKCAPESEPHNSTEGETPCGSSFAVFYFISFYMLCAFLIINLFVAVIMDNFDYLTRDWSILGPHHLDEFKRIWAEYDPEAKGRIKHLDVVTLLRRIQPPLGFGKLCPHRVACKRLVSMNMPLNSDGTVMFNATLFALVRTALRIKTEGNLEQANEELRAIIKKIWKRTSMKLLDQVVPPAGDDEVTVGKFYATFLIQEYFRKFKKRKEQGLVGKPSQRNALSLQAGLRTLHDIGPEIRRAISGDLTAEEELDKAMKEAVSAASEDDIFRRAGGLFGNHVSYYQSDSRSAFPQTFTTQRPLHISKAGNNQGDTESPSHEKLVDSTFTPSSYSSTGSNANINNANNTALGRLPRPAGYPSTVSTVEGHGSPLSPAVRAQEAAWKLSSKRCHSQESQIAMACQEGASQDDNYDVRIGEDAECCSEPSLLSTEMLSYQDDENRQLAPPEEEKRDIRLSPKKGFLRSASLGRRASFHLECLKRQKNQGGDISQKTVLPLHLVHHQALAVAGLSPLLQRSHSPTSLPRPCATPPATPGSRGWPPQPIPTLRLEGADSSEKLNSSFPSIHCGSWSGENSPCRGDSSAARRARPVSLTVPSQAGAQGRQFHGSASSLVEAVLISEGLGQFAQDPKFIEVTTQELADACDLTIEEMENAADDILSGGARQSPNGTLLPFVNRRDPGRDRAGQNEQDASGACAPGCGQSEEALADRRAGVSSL
# Sequence (P13806 27-960 partner limits assumed, other chains not shown): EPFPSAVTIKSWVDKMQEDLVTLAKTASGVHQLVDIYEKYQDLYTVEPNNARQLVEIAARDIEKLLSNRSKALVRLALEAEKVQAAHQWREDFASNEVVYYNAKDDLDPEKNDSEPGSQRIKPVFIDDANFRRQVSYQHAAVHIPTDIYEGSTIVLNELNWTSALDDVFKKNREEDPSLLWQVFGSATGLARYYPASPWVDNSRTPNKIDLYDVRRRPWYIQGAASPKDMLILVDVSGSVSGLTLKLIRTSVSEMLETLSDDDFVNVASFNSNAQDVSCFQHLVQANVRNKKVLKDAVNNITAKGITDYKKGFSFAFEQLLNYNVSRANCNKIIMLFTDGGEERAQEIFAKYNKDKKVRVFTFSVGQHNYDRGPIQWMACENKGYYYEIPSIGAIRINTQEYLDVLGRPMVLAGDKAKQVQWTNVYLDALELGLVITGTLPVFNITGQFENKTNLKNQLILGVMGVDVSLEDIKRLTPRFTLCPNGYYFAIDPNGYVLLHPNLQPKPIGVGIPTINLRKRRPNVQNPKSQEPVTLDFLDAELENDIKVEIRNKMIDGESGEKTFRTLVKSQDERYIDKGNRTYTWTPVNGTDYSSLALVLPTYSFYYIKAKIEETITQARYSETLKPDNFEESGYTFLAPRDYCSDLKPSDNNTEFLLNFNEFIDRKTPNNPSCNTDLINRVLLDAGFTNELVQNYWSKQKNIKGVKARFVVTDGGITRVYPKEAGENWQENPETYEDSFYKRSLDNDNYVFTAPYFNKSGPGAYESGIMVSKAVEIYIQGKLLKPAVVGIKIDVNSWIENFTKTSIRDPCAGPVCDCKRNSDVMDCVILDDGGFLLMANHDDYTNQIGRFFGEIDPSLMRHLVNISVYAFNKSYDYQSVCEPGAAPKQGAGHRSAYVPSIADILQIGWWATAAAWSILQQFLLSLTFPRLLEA
# Sequence (P13806 961-1106 partner limits assumed, other chains not shown): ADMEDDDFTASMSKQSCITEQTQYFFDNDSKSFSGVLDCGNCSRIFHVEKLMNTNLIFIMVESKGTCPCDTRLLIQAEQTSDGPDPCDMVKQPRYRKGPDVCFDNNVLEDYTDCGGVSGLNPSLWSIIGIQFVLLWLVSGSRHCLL
# protocol: Inhibition of nitrendipine binding (3H-nitrendipine displacement, rabbit heart membranes)
# Set-up: species or system rabbit (New Zealand white)
# settings: Table I, 90 min, 4° C.
quantity: IC50 (nM)

Use the examples below as a reference point.
[
  {
    "compound": "CCOC(=O)C1=C(C)NC2=C(C1c1cccc([N+](=O)[O-])c1)S(=O)(=O)CCCCC2 (stereo not drawn)",
    "measuredTarget": "calcium channels (Oryctolagus cuniculus, UniProt P15381)",
    "IC50, nM": 5.5
  },
  {
    "compound": "COC(=O)C1=C(C)NC2=C(C1c1cccc([N+](=O)[O-])c1)S(=O)(=O)CC2 (stereo not drawn)",
    "measuredTarget": "calcium channels (Oryctolagus cuniculus, UniProt P15381)",
    "IC50, nM": 700
  },
  {
    "compound": "CCOC(=O)C1=C(C)NC2=C(C1c1c(F)c(F)c(F)c(F)c1F)S(=O)(=O)CCCC2 (stereo not drawn)",
    "measuredTarget": "calcium channels (Oryctolagus cuniculus, UniProt P15381)",
    "IC50, nM": 28
  },
  {
    "compound": "COC(=O)C1=C(C)NC2=C(C1c1cccc([N+](=O)[O-])c1)S(=O)(=O)CCC2 (stereo not drawn)",
    "measuredTarget": "calcium channels (Oryctolagus cuniculus, UniProt P15381)",
    "IC50, nM": 160
  },
  {
    "compound": "CCOC(=O)C1=C(C)NC2=C(C1c1ccccc1[N+](=O)[O-])S(=O)(=O)CCC2 (stereo not drawn)",
    "measuredTarget": "calcium channels (Oryctolagus cuniculus, UniProt P15381)",
    "IC50, nM": 1500
  }
]

P = COC(=O)C1=C(C)NC2=C(C1c1ccccc1[N+](=O)[O-])S(=O)(=O)CCC2 (stereo not drawn)
Q = CCOC(=O)C1=C(C)NC2=CCCCCS(=O)(=O)C2C1c1cccc([N+](=O)[O-])c1 (stereo not drawn)
R = CC1=C(C(=O)OCCN(C)Cc2ccccc2)C(c2cccc([N+](=O)[O-])c2)C2=C(CCCCS2(=O)=O)N1 (stereo not drawn)
Task: Sort low-to-high on IC50, please. Rank them, then answer with their labels in that order.
Result: R, Q, P
(R: 130 nM, Q: 270 nM, P: 890 nM)

====

# inhibition at 0.1 µM per record follows
# Test system: trachealis muscle
# protocol: Inhibition of calcium dependent smooth muscle contraction (KCl-challenged trachea)
# Format: cell-based, dog
# settings: Canis lupus familiaris; Table II; concentration 0.1 μM; read-out: Inhibition Trachea Muscle Contraction % Inhibition
Report the figure in % without appending any unit label.

get_value(item= CC1=C(C(=O)OCCN(C)Cc2ccccc2)C(c2c(Cl)cccc2Cl)C2=C(CCCCS2(=O)=O)N1 (centres unmarked) , readout=inhibition at 0.1 µM) returns 55

get_value(item= CC1=C(C(=O)OCCN(C)Cc2ccccc2)C(c2ccccc2[N+](=O)[O-])C2=C(CCCCCS2(=O)=O)N1 (centres unmarked) , readout=inhibition at 0.1 µM) returns 69

get_value(item= CC1=C(C(=O)OCCN(C)Cc2ccccc2)C(c2cccc(Cl)c2Cl)C2=C(CCCCCS2(=O)=O)N1 (centres unmarked) , readout=inhibition at 0.1 µM) returns 26

get_value(item= CC1=C(C(=O)OCCN(C)Cc2ccccc2)C(c2cccc([N+](=O)[O-])c2)C2=C(CCCCCS2(=O)=O)N1 (centres unmarked) , readout=inhibition at 0.1 µM) returns 43

get_value(item= CC1=C(C(=O)OCCN(C)Cc2ccccc2)C(c2ccccc2[N+](=O)[O-])C2=C(CCCCS2(=O)=O)N1 (centres unmarked) , readout=inhibition at 0.1 µM) returns 49

get_value(item= CC1=C(C(=O)OCCN(C)Cc2ccccc2)C(c2cccc(Cl)c2Cl)C2=C(CCCCS2(=O)=O)N1 (centres unmarked) , readout=inhibition at 0.1 µM) returns 62

get_value(item= CC1=C(C(=O)OCCN(C)Cc2ccccc2)C(c2cc(F)ccc2F)C2=C(CCCCS2(=O)=O)N1 (centres unmarked) , readout=inhibition at 0.1 µM) returns 43
